# credit: ChEMBL document CHEMBL1201862

- TESTED TARGET: Sentrin-specific protease 8 (Homo sapiens, UniProt Q96LD8)
- Sequence (Q96LD8 whole entry): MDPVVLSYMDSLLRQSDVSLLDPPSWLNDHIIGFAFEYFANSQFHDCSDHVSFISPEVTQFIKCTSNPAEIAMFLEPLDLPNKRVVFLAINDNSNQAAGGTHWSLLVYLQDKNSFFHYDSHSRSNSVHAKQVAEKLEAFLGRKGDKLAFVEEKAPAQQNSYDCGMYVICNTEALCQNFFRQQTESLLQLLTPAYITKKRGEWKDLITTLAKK
- Assay type: functional
Active and inactive are the calls of the source.
Consider the following compounds and their measured IC50 readings.

O=C(Nc1ccccc1N1CCCC1)c1ccc([N+](=O)[O-])o1 = 31.3 µM (active)
COc1ccc(-c2ccc(C(c3c(C)n[nH]c3O)c3c(C)n[nH]c3O)o2)c([N+](=O)[O-])c1 = 28.7 µM (active)
Cc1ccc(C)c(N/C([S-])=C(/C(=O)c2ccc(Cl)s2)[n+]2ccccc2)c1 = 9.94 µM (active)
Cc1[nH][nH]c(=O)c1C(c1ccc(-c2ccc(Cl)c(Cl)c2)o1)c1c(C)[nH][nH]c1=O = 18.8 µM (active)

The reported Sentrin-specific protease 8 (Homo sapiens, UniProt Q96LD8) IC50 of COC(=O)CCCC1=CC2=CC(=O)C(C)(OC(=O)c3cccs3)C(=O)C2=CN1CCCCO (stereo not given) is 7.79 µM (active)

---

- TESTED TARGET: Tumor necrosis factor (Homo sapiens)
- Sequence (P01375 whole entry): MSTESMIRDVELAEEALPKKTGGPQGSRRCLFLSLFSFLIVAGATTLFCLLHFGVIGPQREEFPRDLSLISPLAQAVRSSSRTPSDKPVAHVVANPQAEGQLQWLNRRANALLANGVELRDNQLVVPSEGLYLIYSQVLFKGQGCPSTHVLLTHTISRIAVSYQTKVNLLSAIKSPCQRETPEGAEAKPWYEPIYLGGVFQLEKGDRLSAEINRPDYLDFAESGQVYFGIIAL
- ASSAY EXPLANATION: TNFa-triggered NF-kB activation inhibitors, SAR follow-up, cell-based, revised (AID 2337)
- Assay type: functional
Active and inactive are the calls of the source.
Permitted responses: TRUE for active, FALSE for inactive

Prompt: Name the outcome recorded for Cc1cc(C(=O)NC2CCCc3c2cnn3-c2cccc(C)c2C)n(C)n1 (stereo unspecified) in the assay.
Response: TRUE

Prompt: Kindly provide the recorded test outcome for the following molecule: Cc1ccc2cccc(N=Cc3c(C)[nH]n(-c4ccccc4)c3=O)c2n1
Response: FALSE

---

These records show AC50 for Cytochrome P450 3A4 (Homo sapiens).

# annotated cases, reported AC50 shown
Cc1ccc(CCNC(=O)C2CC(c3ccccc3[N+](=O)[O-])=NO2)cc1 (stereo not drawn) = 1.12 µM (inconclusive)
[O-][S+](Cc1cc(Oc2ccccc2)nc(-c2ccccc2)n1)c1ccccc1 (stereo not drawn) = 28.2 µM (inconclusive)

Cytochrome P450 3A4 (Homo sapiens) AC50 of Cc1cc(C)n(-c2nc(SCCN(C)C)c3c4c(sc3n2)CCCC4)n1 is 17.8 µM (inconclusive)

Entry Cc1cc(C(=O)c2cnc(/N=C/N(C)C)s2)cc(C)c1O , tested on Cytochrome P450 3A4 (Homo sapiens), has a reported AC50 of 25.1 µM (inconclusive)

Simply: CN(C)C(=O)c1ccc(-c2nccc(NCc3ccccc3)n2)cc1 , Cytochrome P450 3A4 (Homo sapiens), AC50 = 20 µM (inconclusive)

Cytochrome P450 3A4 (Homo sapiens) assay, molecule COc1ccc(C(C(=O)NC2CCCC2)N(C(=O)c2snc(-c3ccc(F)cc3)c2N)c2ccc(F)cc2)cc1 (stereo not drawn) , recorded AC50 = 12.6 µM (inconclusive)

Lab entry: Cytochrome P450 3A4 (Homo sapiens) assay, molecule Nc1nonc1-c1nc2ccccc2n1Cc1ccc(F)cc1Cl , AC50 = 14.1 µM (inconclusive)

For the molecule S=C(CSc1ccccc1)Nc1cccc2ccccc12 , the measured AC50 on Cytochrome P450 3A4 (Homo sapiens) was 3.98 µM (inconclusive)

Lab note: molecule CN(C)c1ncc2nc(-c3cc(F)cc(F)c3)c(=O)n(Cc3cccs3)c2n1 tested on Cytochrome P450 3A4 (Homo sapiens); recorded AC50 was 5.01 µM (inconclusive)

Lab note: molecule COC(=O)C/C=C\[C@@H](C)[C@@H](/C=N\O[C@@H]1O[C@H](COC(C)=O)[C@H](OC(C)=O)[C@H](OC(C)=O)[C@H]1OC(C)=O)OC tested on Cytochrome P450 3A4 (Homo sapiens); recorded AC50 was 6.31 µM (inconclusive)

Item: Cc1ccc(-c2noc(CN3CCN(C(c4ccccc4)c4ccccc4)CC3)n2)cc1 | System: Cytochrome P450 3A4 (Homo sapiens) | AC50: 35.5 µM (inconclusive)

Item C[C@@]12CC[C@@H]3c4ccc(O)cc4C[C@H](CCCCCCCCC[S+]([O-])CCCC(F)(F)C(F)(F)F)[C@H]3[C@@H]1CC[C@@H]2O (stereo partly drawn) ; assay system Cytochrome P450 3A4 (Homo sapiens); AC50 reported as 1 µM (inconclusive)

Result for CCC1OC23CCCCC2C(C#N)(C(=N)O3)C1(C#N)C#N (stereo not drawn) , tested on Cytochrome P450 3A4 (Homo sapiens), AC50: 25.1 µM (inconclusive)

Record O=c1cc(CN2CCN(c3ccc(F)cc3)CC2)c2cc3c(cc2o1)CCCC3 has Cytochrome P450 3A4 (Homo sapiens) AC50 equal to 14.1 µM (inconclusive)

Entry Cc1cnc(CNc2nc(-c3ccc(C(=O)N(C)C)cc3)nc3ccccc23)cn1 ; assay system Cytochrome P450 3A4 (Homo sapiens); AC50 recorded at 15.8 µM (inconclusive)

Tested system Cytochrome P450 3A4 (Homo sapiens); AC50 recorded for Cc1nc(NCc2ccco2)c2c3c(sc2n1)CCC3 was 15.8 µM (inconclusive)

Tested system Cytochrome P450 3A4 (Homo sapiens); AC50 recorded for O=C(Nc1ccccc1)c1cc([N+](=O)[O-])ccc1Cl was 25.1 µM (inconclusive)

The recorded AC50 with Cytochrome P450 3A4 (Homo sapiens) for CCCCNCCOCCOc1ccc(C)cc1[N+](=O)[O-] was 14.1 µM (inconclusive)
